Here's a batch of molecules along with measured pIC50 for Stromelysin-1 (Homo sapiens, UniProt P08254).
pIC50: −log10 of the molar value.

{"molecule": "N#Cc1ccc(-c2ccc(OCC(CSc3ccccc3)N(O)C=O)cc2)cc1 (stereo unspecified)", "result_qualifier": "=", "pIC50": 7.44}
{"molecule": "CC1(C)NC(=O)N(CCC(COc2ccc(-c3ccc(C#N)cc3)cc2)N(O)C=O)C1=O (stereo unspecified)", "result_qualifier": "=", "pIC50": 7.46}
{"molecule": "CC(C)CC(COc1ccc(-c2ccc(C#N)cc2)cc1)N(O)C=O (stereo unspecified)", "result_qualifier": "=", "pIC50": 6.92}
{"molecule": "N#Cc1ccc(-c2ccc(OCC(Cc3ccc(F)cc3)N(O)C=O)cc2)cc1 (stereo unspecified)", "result_qualifier": "=", "pIC50": 6.74}
{"molecule": "CCN1C(=O)N(CC(COc2ccc(-c3ccc(C#N)cc3)cc2)N(O)C=O)C(=O)C1(C)C (stereo unspecified)", "result_qualifier": "=", "pIC50": 7.57}
{"molecule": "N#Cc1ccc(-c2ccc(OCCN(O)C(N)=O)cc2)cc1", "result_qualifier": "<", "pIC50": 7.00}

====

# protocol_summary: Half life determined in rat by intravenous administration
# Format: ADME, organism-based
# conditions_used: in vivo
readout_label: half-life (min)

{"compound": "CC(COc1ccc(-c2ccc(C#N)cc2)cc1)C(=O)NO (configuration not stated)", "quantity_unit": "min", "numeric_readout": 18}
{"compound": "CC(COc1ccc(-c2ccc(C#N)cc2)cc1)N(O)C=O (configuration not stated)", "quantity_unit": "min", "numeric_readout": 96}

====

# target_system: Interstitial collagenase (Homo sapiens, UniProt P03956)
# Sequence (P03956 whole entry): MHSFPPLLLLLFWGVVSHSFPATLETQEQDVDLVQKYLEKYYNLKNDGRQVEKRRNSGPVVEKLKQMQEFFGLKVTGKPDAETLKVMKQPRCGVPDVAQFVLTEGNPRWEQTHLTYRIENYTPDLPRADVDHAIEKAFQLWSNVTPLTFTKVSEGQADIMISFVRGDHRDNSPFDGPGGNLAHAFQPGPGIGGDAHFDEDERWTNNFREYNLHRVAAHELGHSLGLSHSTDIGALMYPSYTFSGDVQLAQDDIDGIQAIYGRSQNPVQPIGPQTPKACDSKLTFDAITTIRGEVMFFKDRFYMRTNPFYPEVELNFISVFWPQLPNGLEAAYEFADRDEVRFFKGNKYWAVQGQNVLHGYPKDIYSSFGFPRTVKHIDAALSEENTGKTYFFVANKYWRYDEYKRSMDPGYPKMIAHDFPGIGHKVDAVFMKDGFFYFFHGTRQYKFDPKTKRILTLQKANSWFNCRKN
pIC50: −log10 of the molar value.
Catalogue of pIC50 values
readout_label: pIC50

{"molecule": "N#Cc1ccc(-c2ccc(OCC(CN3C(=O)c4ccccc4C3=O)N(O)C=O)cc2)cc1 (stereo not drawn)", "target_system": "Interstitial collagenase (Homo sapiens, UniProt P03956)", "readout_label": "pIC50", "result": "< 5.00"}
{"molecule": "CCN1C(=O)N(CC(COc2ccc(-c3ccc(C#N)cc3)cc2)N(O)C=O)C(=O)C1(C)C (stereo not drawn)", "target_system": "Interstitial collagenase (Homo sapiens, UniProt P03956)", "readout_label": "pIC50", "result": 5.62}
{"molecule": "N#Cc1ccc(-c2ccc(OCC(c3ccc(F)cc3)N(O)C=O)cc2)cc1 (stereo not drawn)", "target_system": "Interstitial collagenase (Homo sapiens, UniProt P03956)", "readout_label": "pIC50", "result": "< 5.00"}
{"molecule": "CC(C)CC(COc1ccc(-c2ccc(C#N)cc2)cc1)N(O)C=O (stereo not drawn)", "target_system": "Interstitial collagenase (Homo sapiens, UniProt P03956)", "readout_label": "pIC50", "result": "< 5.00"}
{"molecule": "CN1C(=O)N(CCC(COc2ccc(-c3ccc(C#N)cc3)cc2)N(O)C=O)C(=O)C1(C)C (stereo not drawn)", "target_system": "Interstitial collagenase (Homo sapiens, UniProt P03956)", "readout_label": "pIC50", "result": "< 5.00"}
{"molecule": "CC(COc1ccc(-c2ccc(C#N)cc2)cc1)N(O)C=O (stereo not drawn)", "target_system": "Interstitial collagenase (Homo sapiens, UniProt P03956)", "readout_label": "pIC50", "result": "< 5.00"}
{"molecule": "N#Cc1ccc(-c2ccc(OCCN(O)C(N)=O)cc2)cc1", "target_system": "Interstitial collagenase (Homo sapiens, UniProt P03956)", "readout_label": "pIC50", "result": "< 7.30"}
{"molecule": "N#Cc1ccc(-c2ccc(OCC(CN3C(=O)CCC3=O)N(O)C=O)cc2)cc1 (stereo not drawn)", "target_system": "Interstitial collagenase (Homo sapiens, UniProt P03956)", "readout_label": "pIC50", "result": "< 5.00"}
